Consider the following substances and their measured MIC readings.
# System: Salmonella typhimurium
# assayInfo: Antibacterial activity against Salmonella enterica subsp. enterica serovar Typhimurium C77-31 assessed as inhibition of bacterial growth at pH 6.5 incubated for 24 hrs by NCCLS protocol based method
# Type: functional

substance	tgt	signQualifier	MIC [µM]
H-FLFHLIPHVIHGLVKAIRK-NH2	Salmonella typhimurium	=	2
H-FLFHLIPHVIHGLVHAIHH-NH2	Salmonella typhimurium	=	8
H-HLDHLIPHVIHGLVHAIHH-NH2	Salmonella typhimurium	=	64
H-FLEHLIPHVIHGLVHAIHH-NH2	Salmonella typhimurium	=	8
H-FLDHLIPHVIHGLVHAIHH-NH2	Salmonella typhimurium	=	16
H-FLFKLIPKVIKGLVKAIRK-NH2	Salmonella typhimurium	=	2
H-ELEHLIPHVIHGLVHAIHH-NH2	Salmonella typhimurium	>	64
H-HLHHLIPHVIHGLVHAIHH-NH2	Salmonella typhimurium	=	2
H-HLEHLIPHVIHGLVHAIHH-NH2	Salmonella typhimurium	>	64
H-FLFKLIPKVIKGLVHAIHH-NH2	Salmonella typhimurium	=	4
H-FLHHLIPHVIHGLVHAIHH-NH2	Salmonella typhimurium	=	2
H-DLDHLIPHVIHGLVHAIHH-NH2	Salmonella typhimurium	>	64
